Each recorded value in this set is attributed to the Human Domainome abundance scans (Beltran et al. 2025).

B1: Glucocorticoid receptor, residues 419 to 494; numbered along this chain, P04150 (parent)
chain: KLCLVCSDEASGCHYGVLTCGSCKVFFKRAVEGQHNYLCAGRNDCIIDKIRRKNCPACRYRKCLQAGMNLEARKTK

# Variants of: B1
# test method notes: abundance fitness (aPCA) (normalised: wild type 0, dead -1); higher = more abundant; growth selection in yeast, the domain comes from the species named
# conditions used: Homo sapiens
Readings of abundance fitness for the listed variants
Write the value as a bare number.

Worked cases, abundance fitness given:
In [3]: df
Out[3]:
    var  quantitative_readout
0  D44Y                 -0.37
1  C58D                -0.872
2  N69R                  0.01
3  V17D                -0.405
4   V5K                 -1.15
5   L2D                -0.045
6  N54L                -0.021
7  N69P                -0.252
8  G41V                -0.051
9  A10I                 -0.15

[in] Give recorded abundance fitness. "H14V"
[out] -0.367

[in] Give the measured abundance fitness for "G33Y"
[out] 0.035

[in] Specify abundance fitness for "G33H" and stop.
[out] -0.006

[in] Query abundance fitness for "K1L"
[out] -0.236

[in] Respond only with abundance fitness recorded for "L38M"
[out] 0.02
